assay.system: T1, human G-protein coupled receptor family C group 5 member D (GPRC5D) (human, UniProt Q9NZD1 1-345)
T1 construct: Overexpressed on 3T3 cells in the FACS assays; also called human GPRC5D; 3T3-GPRC5D
T1 sequence (Q9NZD1 whole entry): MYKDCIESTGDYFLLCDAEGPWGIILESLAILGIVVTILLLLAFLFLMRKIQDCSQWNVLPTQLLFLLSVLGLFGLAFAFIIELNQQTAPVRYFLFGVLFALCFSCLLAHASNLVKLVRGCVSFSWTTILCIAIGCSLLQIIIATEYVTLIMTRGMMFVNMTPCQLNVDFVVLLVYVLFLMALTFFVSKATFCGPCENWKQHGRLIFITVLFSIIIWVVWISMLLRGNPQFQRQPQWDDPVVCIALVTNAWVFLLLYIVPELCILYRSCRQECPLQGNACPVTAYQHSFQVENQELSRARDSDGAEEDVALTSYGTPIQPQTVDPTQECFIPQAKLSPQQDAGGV
experimental.details: FACS, scFv phage clones on 3T3 cells overexpressing GPRC5D
result.type: binding result

binder	reported.result
ET150-162 scFv (scFv, also called ET150-12 scFv) scFv: QSALTQPPSASGSPGQSVTISCTGTSRDAGGYNYFSWYQQHPGKAPKLLIYEVTKRPSGVPDRFSGSKSGKTASLTVSGLQADDEAVYYCSSYGGSNNFRVFGGGTKLTVLGSRGGGGSGGGGSGGGGSLEMAEVQLVESGGGVVRPGGSLRLSCAASGFTFGDYGMSWVRQAPGKGLEWVSGINWNGGSTGYADSVKGRFTISRDNAKNSLYLQMNSLRAEDTAVYYCARSKQDYWGQGTLVTVSS	binds
ET150-165 scFv (scFv, also called ET150-15 scFv) scFv: QSALTQPPSASGSPGQSVTISCTGTSSDIGGYNYVSWYQQHPGKAPKLMIYEVNKRPSGVPDRFSGSKSGNTASLTVSGLQAEDEADYYCASFAGRKTLVFGGGTKLTVLGSRGGGGSGGGGSGGGGSLEMAQVQLVQSGAEVKKPGASVKVSCRASGYTFTAYSLHWVRQAPGQGLEWMGWINPSSGGAVYAQKFQGRVTMTRDTSISTAYMELSGLRSDDTAVYYCARNVGGQADDWGQGTLVTVSS	binds
ET150-030 scFv (scFv, also called ET150-180 scFv) scFv: AELQSVLTQPPSVSGAPGQRVTISCTGSSSNIGAGYDVHWYQQLPGRAPKLLIYGNSNRPSGVPDRFSGSKSGTSASLAITGLQAEDEADYYCQSYDSSLRGYVFGTGTKVTVLGSRGGGGSGGGGSGGGGSLEMAQVQLVQSGGGVVQPGRSLRLSCAASGFSFSGTAMHWVRQAPGKGLEWVSTISSTGRSTYYRDSVKGRFTISRDNSKNTLYLQMNSLRGEDTAVYYCARPVSSMTLSIQSDGWGQGTLVTVSS	binds
ET150-156 scFv (scFv, also called ET150-6 scFv) scFv: QSALTQPASVSGSPGQSITISCTGTSRDVGGYNYVSWYQQYPGKAPKLMIYEVSKRPSGVSNRFSGSKSGNTASLTISGLQAEDEADYYCSSYTSSSTLDFGTGTKVTVLGSRGGGGSGGGGSGGGGSLEMAQVQLVQSGAEVKQPGASVKVSCQASGYTFTTYYMHWVRQAPGQGLEWMGIINPNGGGTFYAQKFQDRVTMTRDTSTGTVYMELSSLRSDDTAVYYCARGHKVYKSHPTGGYDRWGQGTLVTVSS	binds

We now examine a further binder.
Problem: # binding result lookup, item ET150-171 scFv (scFv, also called ET150-21 scFv) scFv: QSALTQPASVSGSPGQSITISCTGTSSDVGGYNFVSWYQQHPGKAPKVMIYDVSKRPSGISNRFSGSKSGNTASLTISGLQVEDEAEYYCSSYTSTRTVIFAGGTKVTVLGSRGGGGSGGGGSGGGGSLEMAQVQLVQSGAEVKKPGASVKVSCKASGYTFTSYYMHWVRQAPGQGLEWMGIINPSGGSTRYAQKFQGRVTMTRDTSTSTVYMELSSLRSEDTAVYYCARGSSRWGGWTGDYWGQGTLVTVSS
Solution: binds
